# tested_on: HIS-TGFβR1 T204D (Homo sapiens (Human), UniProt P36897, T204D)
# Sequence (P36897 34-503 T204D): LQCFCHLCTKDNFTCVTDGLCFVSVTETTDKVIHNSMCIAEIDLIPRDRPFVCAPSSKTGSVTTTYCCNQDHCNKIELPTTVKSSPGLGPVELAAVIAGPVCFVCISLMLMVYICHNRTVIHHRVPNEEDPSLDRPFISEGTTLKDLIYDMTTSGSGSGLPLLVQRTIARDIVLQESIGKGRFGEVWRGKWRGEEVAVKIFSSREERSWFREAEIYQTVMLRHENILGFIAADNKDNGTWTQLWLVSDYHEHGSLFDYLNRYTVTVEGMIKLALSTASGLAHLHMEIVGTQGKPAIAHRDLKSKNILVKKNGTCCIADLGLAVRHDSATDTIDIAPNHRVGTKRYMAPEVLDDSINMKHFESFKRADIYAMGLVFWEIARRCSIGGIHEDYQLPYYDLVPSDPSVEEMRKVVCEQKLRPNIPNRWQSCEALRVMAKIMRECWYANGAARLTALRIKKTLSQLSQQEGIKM
# assay_explanation: HTRF probe displacement assay, HIS-TGFβR1 T204D
# Format: binding
# condition_info: 1 nM HIS-TGFβR1 T204D, 1 hour at room temperature, read-out: TGFBR1T204D IC50
quantity_kind: IC50 (µM)

O=C(O)c1cnn2ccc(-c3cccnc3-c3cccc(C(F)F)n3)nc12 = 0.107
Cc1cc(C)nc(-c2ncccc2-c2ccc3ncc(C(N)=O)n3c2)c1 = 0.021
N#Cc1cnc2ccc(-c3cccnc3-c3cccc(F)n3)nn12 = 0.397
COc1cccc(-c2ncccc2-c2ccc3ncc(C#N)n3c2)n1 = 0.009
FC(F)c1cccc(-c2ncccc2-c2ccc3[nH]ncc3c2)n1 = 0.003
Cc1cccc(-c2nccc(C(F)F)c2-c2ccc3ncc(C(N)=O)n3c2)n1 = 15
NC(=O)c1cnc2ccc(-c3cccnc3-c3cccc(F)n3)cn12 = 0.004
NC(=O)c1cnc2ccc(-c3cccnc3-c3cc(F)ccn3)cn12 = 0.005

(P) CC(=O)Nc1cnc(-c2cccc(C)n2)c(-c2ccc3ncc(C#N)n3c2)c1
(Q) CC(C)(O)c1cccc(-c2ncccc2-c2ccc3ncc(C#N)n3c2)n1
(R) Cc1cccc(-c2nc(C)ccc2-c2ccc3ncc(C#N)n3c2)n1
(S) O=C(NC1CC1)c1cnn2ccc(-c3cccnc3-c3cccc(C(F)(F)F)n3)nc12
*Q* Ordering: ascending IC50. Show the ranking through the labels, in the order asked for.
*A* P, S, R, Q
